Experiment: Stability in phosphate buffer saline (Example 8)
Format: physicochemical
Conditions: phosphate buffer saline, pH 7.4; PBS, pH-7.40; Day 7; read-out: % remaining compared to Day 0
measured_quantity: remaining at 168 h (%)
# value in %; strip the unit string

Item CNC(=O)c1ccccc1Sc1ccc2c(/C=C/c3ccccn3)nn(COC(=O)CCOCCOCCOC)c2c1 [Axitinib-N-m(PEG)3-oxymethyl prodrug] has what recorded remaining at 168 h? 12.7

Then what about the compound CNC(=O)c1ccccc1Sc1ccc2c(/C=C/c3ccccn3)n[nH]c2c1 [Axitinib, axitinib, reference compound] ? 91.8

Okay, and CNC(=O)c1ccccc1Sc1ccc2c(/C=C/c3ccccn3)nn(COC(=O)CCOCCOC)c2c1 [Axitinib-N-m(PEG)2-oxymethyl prodrug] ? 16.9

Another compound to check: CNC(=O)c1ccccc1Sc1ccc2c(/C=C/c3ccccn3)nn(COC(=O)CCOC)c2c1 [Axitinib-N-m(PEG)1-oxymethyl prodrug] 5

---

Test: Solubility of axitinib and prodrug in phosphate buffer saline pH 7.4, 24 hour at 22 °C (Example 2)
Assay type: physicochemical
Conditions: phosphate buffer saline pH 7.4; 24 hour at 22 °C, continuous shaking; test concentration 1 mg/mL; HPLC
measured_quantity: solubility at 24 h

# input compound: CNC(=O)c1ccccc1Sc1ccc2c(/C=C/c3ccccn3)n[nH]c2c1 [Axitinib, axitinib, reference compound] ; wanted: its solubility at 24 h < 0.78 µg/mL

---

Assay: Stability in phosphate buffer saline (Example 8)
Format: physicochemical
Conditions: phosphate buffer saline, pH 7.4; PBS, pH-7.40; Day 1; read-out: % remaining compared to Day 0
measured_quantity: remaining at 24 h

Requested field: remaining at 24 h. Item: CNC(=O)c1ccccc1Sc1ccc2c(/C=C/c3ccccn3)nn(COC(=O)CCOC)c2c1 [Axitinib-N-m(PEG)1-oxymethyl prodrug] 38.8%

Now try CNC(=O)c1ccccc1Sc1ccc2c(/C=C/c3ccccn3)nn(COC(=O)CCOCCOCCOC)c2c1 [Axitinib-N-m(PEG)3-oxymethyl prodrug] . 53.9%

What would you report for CNC(=O)c1ccccc1Sc1ccc2c(/C=C/c3ccccn3)n[nH]c2c1 [Axitinib, axitinib, reference compound] ? 96.7%

Similarly, CNC(=O)c1ccccc1Sc1ccc2c(/C=C/c3ccccn3)nn(COC(=O)CCOCCOC)c2c1 [Axitinib-N-m(PEG)2-oxymethyl prodrug] ? 45.9%

---

Assay: Solubility of axitinib prodrugs in phosphate buffer saline (Example 7)
Type: physicochemical
Details: pH 7.4; phosphate buffer saline (PBS, pH-7.40); read-out: Solubility
Procedure: Axitinib prodrugs of the present invention were tested for solubility in phosphate buffer saline (PBS, pH-7.40).
measured_quantity: solubility (µg/mL)
Field: numeric (µg/mL). Do not append units.

What value of solubility has been recorded for this entry: CNC(=O)c1ccccc1Sc1ccc2c(/C=C/c3ccccn3)nn(COC(=O)CCOCCOC)c2c1 [Axitinib-N-m(PEG)2-oxymethyl prodrug] 1.1

Entry to check: CNC(=O)c1ccccc1Sc1ccc2c(/C=C/c3ccccn3)nn(COC(=O)CCOCCOCCOC)c2c1 [Axitinib-N-m(PEG)3-oxymethyl prodrug] 6.16

Further, for CNC(=O)c1ccccc1Sc1ccc2c(/C=C/c3ccccn3)nn(COC(=O)CCC(=O)O)c2c1 [Axitinib-N-Succinoyloxymethyl Prodrug] ? 217

---

Would you kindly list remaining at 72 h for each of these compounds?
Assay: Stability in phosphate buffer saline (Example 8)
Assay type: physicochemical
Settings: phosphate buffer saline, pH 7.4; PBS, pH-7.40; Day 3; read-out: % remaining compared to Day 0
Write the answer as a number in %, unit excluded.

Recorded remaining at 72 h for CNC(=O)c1ccccc1Sc1ccc2c(/C=C/c3ccccn3)nn(COC(=O)CCOC)c2c1 [Axitinib-N-m(PEG)1-oxymethyl prodrug] , please? 6.7

Ok, now CNC(=O)c1ccccc1Sc1ccc2c(/C=C/c3ccccn3)nn(COC(=O)CCOCCOCCOC)c2c1 [Axitinib-N-m(PEG)3-oxymethyl prodrug] 24

How about CNC(=O)c1ccccc1Sc1ccc2c(/C=C/c3ccccn3)nn(COC(=O)CCOCCOC)c2c1 [Axitinib-N-m(PEG)2-oxymethyl prodrug] ? 30.5

Consider next the compound CNC(=O)c1ccccc1Sc1ccc2c(/C=C/c3ccccn3)n[nH]c2c1 [Axitinib, axitinib, reference compound] in the same way. 96.2
